# runDescription: Pharmacokinetics in Wistar rats, IV/IP/PO
# Type: in vivo
# details: Wistar, rat, plasma, ip, 5 mg/kg, AUC0 ⟶∞, IP 5 mg/kg
assayEndpoint: AUC (ng·h/mL)
Give just the numeric value; ng·h/mL need not be written.

Problem: Entry under review: "Cc1ccc2c(c1)c1c(n2CCc2ccccc2)CCN(C)C1" . Reported AUC?
Result: 2830

* * *

# runDescription: Pharmacokinetics in dogs
# Format: in vivo, dogs (Beagle)
# details: Beagle, dog, blood, iv, 2 mg/kg
assayEndpoint: Tmax (min)
Hi! Could you send only the number? It should be in min, unit omitted.

Problem: What value of measured Tmax is listed for Cc1ccc2c(c1)c1c(n2CCc2ccccc2)CCN(C)C1 [AVN-101] ?
Result: 1

* * *

# runDescription: Brain/plasma/CSF distribution in Sprague Dawley rats
# Type: in vivo
# details: Sprague Dawley, rat, CSF, iv, 2 mg/kg
assayEndpoint: AUC(0-t) (ng·h/mL)
Please state the figure in ng·h/mL; there is no need to write the unit.

Problem: Look up AUC(0-t) for this compound: Cc1ccc2c(c1)c1c(n2CCc2ccccc2)CCN(C)C1 [AVN-101]
Result: 25.3

* * *

# runDescription: Pharmacokinetics in Rhesus monkeys
# Assay type: in vivo
# details: rhesus monkey, in vivo, po, 10 mg/kg, T1/2, monkey 34920, PO 10 mg/kg
assayEndpoint: half-life
Please answer in the form of a number followed by its unit of measurement.

Problem: Sample Cc1ccc2c(c1)c1c(n2CCc2ccccc2)CCN(C)C1 [AVN-101] — what was its half-life?
Result: 7.3 h

* * *

# runDescription: Brain/plasma/CSF distribution in Sprague Dawley rats
# Format: in vivo
# details: Sprague Dawley, rat, plasma, iv, 2 mg/kg
assayEndpoint: half-life (h)
The answer is to be given in h; state only the numeric part.

Problem: Which half-life is reported for this compound? "Cc1ccc2c(c1)c1c(n2CCc2ccccc2)CCN(C)C1"
Result: 2.39

* * *

# runDescription: Brain/plasma/CSF distribution in Sprague Dawley rats
# Assay type: in vivo
# details: Sprague Dawley, rat, CSF, iv, 2 mg/kg
assayEndpoint: half-life (h)
Dear colleague, please return just the value in h, with no unit written.

Problem: Fill blank: measured half-life of the molecule "Cc1ccc2c(c1)c1c(n2CCc2ccccc2)CCN(C)C1" is ____.
Result: 1.62

* * *

# runDescription: Pharmacokinetics in mice, IP
# Format: in vivo
# details: mouse, blood, 0.2 mg/kg
assayEndpoint: half-life (min)
Answer with a number only, understood to be in min.

Problem: half-life for Cc1ccc2c(c1)c1c(n2CCc2ccccc2)CCN(C)C1 [AVN-101] ?
Result: 58

* * *

# runDescription: Pharmacokinetics in Rhesus monkeys
# Assay type: in vivo
# details: rhesus monkey, in vivo, po, 10 mg/kg, AUC0 ⟶∞, monkey 34920, PO 10 mg/kg
assayEndpoint: AUC (ng·h/mL)
Give the value in ng·h/mL but do not write ng·h/mL after it.

Problem: Which AUC value belongs to "Cc1ccc2c(c1)c1c(n2CCc2ccccc2)CCN(C)C1" ?
Result: 637

* * *

# runDescription: Pharmacokinetics in dogs
# Format: in vivo, dogs (Beagle)
# details: Beagle, dog, blood, iv, 1 mg/kg
assayEndpoint: Cmax (ng/mL)
Your answer is read as ng/mL, so omit the unit and give the number.

Problem: Tell me the measured Cmax of Cc1ccc2c(c1)c1c(n2CCc2ccccc2)CCN(C)C1 [AVN-101] , please.
Result: 13.7

* * *

# runDescription: Pharmacokinetics in Rhesus monkeys
# Type: in vivo
# details: rhesus monkey, in vivo, po, 10 mg/kg, T1/2, Mean, PO 10 mg/kg
assayEndpoint: half-life (h)
Please state the figure in h; there is no need to write the unit.

Problem: Any idea what its half-life is? The compound is "Cc1ccc2c(c1)c1c(n2CCc2ccccc2)CCN(C)C1"
Result: 5.77

* * *

# runDescription: Pharmacokinetics in dogs
# Format: in vivo, dogs (Beagle)
# details: Beagle, dog, blood, po, 10 mg/kg
assayEndpoint: Tmax

Problem: Entry "Cc1ccc2c(c1)c1c(n2CCc2ccccc2)CCN(C)C1" : reported Tmax = ?
Result: 1 h

* * *

# runDescription: Pharmacokinetics in Rhesus monkeys
# Assay type: in vivo
# details: rhesus monkey, in vivo, po, 10 mg/kg, Kel, Mean, PO 10 mg/kg
assayEndpoint: k el (s⁻¹)
Reply with just the number (in s⁻¹).

Problem: Record request: k el value, item "Cc1ccc2c(c1)c1c(n2CCc2ccccc2)CCN(C)C1"
Result: 3.67e-05

* * *

# systemUnderTest: Adrenergic α2B (Homo sapiens)
# Sequence (P18089 whole entry): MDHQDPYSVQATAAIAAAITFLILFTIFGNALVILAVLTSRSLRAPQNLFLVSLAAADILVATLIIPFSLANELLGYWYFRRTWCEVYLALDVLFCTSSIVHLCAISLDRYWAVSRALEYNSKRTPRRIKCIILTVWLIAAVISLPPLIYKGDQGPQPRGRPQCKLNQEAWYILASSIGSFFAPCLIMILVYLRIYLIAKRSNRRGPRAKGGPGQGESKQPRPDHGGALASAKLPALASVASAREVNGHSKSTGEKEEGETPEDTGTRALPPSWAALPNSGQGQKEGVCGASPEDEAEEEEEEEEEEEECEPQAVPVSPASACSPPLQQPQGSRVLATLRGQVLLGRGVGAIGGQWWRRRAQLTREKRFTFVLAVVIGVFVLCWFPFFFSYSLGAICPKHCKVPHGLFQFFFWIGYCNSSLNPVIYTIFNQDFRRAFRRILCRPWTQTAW
pKi: −log10 of the molar value.
assayEndpoint: pKi

Problem: Form field - read-out: pKi; system: Adrenergic α2B (Homo sapiens); submitted item: Cc1ccc2c(c1)c1c(n2CCc2ccccc2)CCN(C)C1 [AVN-101]
Result: 8.44 to 9.39

* * *

# runDescription: Pharmacokinetics in dogs
# Type: in vivo, dogs (Beagle)
# details: Beagle, dog, blood, po, 10 mg/kg
assayEndpoint: Cmax (ng/mL)
Numbers only; they are read as ng/mL.

Problem: Could you tell me which Cmax is on file for Cc1ccc2c(c1)c1c(n2CCc2ccccc2)CCN(C)C1 [AVN-101] ?
Result: 23

* * *

# runDescription: Brain/plasma/CSF distribution in Sprague Dawley rats
# Assay type: in vivo
# details: Sprague Dawley, rat, brain, iv, 2 mg/kg
assayEndpoint: k el (s⁻¹)
The reply should contain only the number, in s⁻¹.

Problem: Given the entry "Cc1ccc2c(c1)c1c(n2CCc2ccccc2)CCN(C)C1" , report its measured k el.
Result: 0.000153

* * *

# runDescription: Brain/plasma/CSF distribution in Sprague Dawley rats
# Assay type: in vivo
# details: Sprague Dawley, rat, plasma, iv, 2 mg/kg
assayEndpoint: AUC(0-t) (ng·h/mL)
Could you give me the number in ng·h/mL? Just the number is fine.

Problem: Return reported AUC(0-t); argument: Cc1ccc2c(c1)c1c(n2CCc2ccccc2)CCN(C)C1 [AVN-101]
Result: 376

* * *

# runDescription: Phase I pharmacokinetics, single PO dose
# Format: in vivo, human
# details: human, blood, po, 20 mg
assayEndpoint: half-life (h)
Give just the numeric value; h need not be written.

Problem: Any idea what its half-life is? The molecule is "Cc1ccc2c(c1)c1c(n2CCc2ccccc2)CCN(C)C1"
Result: 8.18

* * *

# runDescription: Brain/plasma/CSF distribution in Sprague Dawley rats
# Assay type: in vivo
# details: Sprague Dawley, rat, plasma, iv, 2 mg/kg
assayEndpoint: k el (s⁻¹)
Supply the numeric figure in s⁻¹, leaving out any unit text.

Problem: Field request: k el | item: "Cc1ccc2c(c1)c1c(n2CCc2ccccc2)CCN(C)C1"
Result: 8e-05

* * *

# systemUnderTest: UniProt:P47898
# Sequence (P47898 whole entry): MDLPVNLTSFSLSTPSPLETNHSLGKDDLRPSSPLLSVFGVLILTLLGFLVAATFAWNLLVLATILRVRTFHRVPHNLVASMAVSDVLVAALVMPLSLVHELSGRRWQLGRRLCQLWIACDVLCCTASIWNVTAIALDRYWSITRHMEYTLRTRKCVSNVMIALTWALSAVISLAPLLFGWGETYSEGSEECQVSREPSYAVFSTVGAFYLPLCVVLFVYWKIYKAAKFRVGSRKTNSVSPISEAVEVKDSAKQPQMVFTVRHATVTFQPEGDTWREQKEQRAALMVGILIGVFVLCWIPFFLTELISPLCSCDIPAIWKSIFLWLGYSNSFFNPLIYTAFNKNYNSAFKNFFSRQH
assayEndpoint: pKi
// pKi is dimensionless: -log10 of concentration (M)

Problem: Param readout = pKi; param system = UniProt:P47898; param query = Cc1ccc2c(c1)c1c(n2CCc2ccccc2)CCN(C)C1 [AVN-101] ; response: value
Result: 7.68

* * *

# systemUnderTest: Adrenergic α2C (Homo sapiens)
# Sequence (P18825 whole entry): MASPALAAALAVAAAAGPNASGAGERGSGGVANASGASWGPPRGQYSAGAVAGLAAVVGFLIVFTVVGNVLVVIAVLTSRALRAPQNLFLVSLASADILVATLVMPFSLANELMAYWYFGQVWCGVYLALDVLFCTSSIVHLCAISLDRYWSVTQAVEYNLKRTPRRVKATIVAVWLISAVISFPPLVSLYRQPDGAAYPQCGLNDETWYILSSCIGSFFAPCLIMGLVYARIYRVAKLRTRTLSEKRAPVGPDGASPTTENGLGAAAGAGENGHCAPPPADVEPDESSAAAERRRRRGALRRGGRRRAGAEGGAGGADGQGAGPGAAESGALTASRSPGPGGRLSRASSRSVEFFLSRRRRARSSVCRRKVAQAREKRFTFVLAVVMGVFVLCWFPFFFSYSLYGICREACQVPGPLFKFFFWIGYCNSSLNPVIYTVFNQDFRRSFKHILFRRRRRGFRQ
assayEndpoint: Ki

Problem: Give the reported Ki for "Cc1ccc2c(c1)c1c(n2CCc2ccccc2)CCN(C)C1" (system: Adrenergic α2C (Homo sapiens)).
Result: 0.41 to 3.6 nM

* * *

# systemUnderTest: Adrenergic α2A (Homo sapiens, UniProt P08913)
# Sequence (P08913 whole entry): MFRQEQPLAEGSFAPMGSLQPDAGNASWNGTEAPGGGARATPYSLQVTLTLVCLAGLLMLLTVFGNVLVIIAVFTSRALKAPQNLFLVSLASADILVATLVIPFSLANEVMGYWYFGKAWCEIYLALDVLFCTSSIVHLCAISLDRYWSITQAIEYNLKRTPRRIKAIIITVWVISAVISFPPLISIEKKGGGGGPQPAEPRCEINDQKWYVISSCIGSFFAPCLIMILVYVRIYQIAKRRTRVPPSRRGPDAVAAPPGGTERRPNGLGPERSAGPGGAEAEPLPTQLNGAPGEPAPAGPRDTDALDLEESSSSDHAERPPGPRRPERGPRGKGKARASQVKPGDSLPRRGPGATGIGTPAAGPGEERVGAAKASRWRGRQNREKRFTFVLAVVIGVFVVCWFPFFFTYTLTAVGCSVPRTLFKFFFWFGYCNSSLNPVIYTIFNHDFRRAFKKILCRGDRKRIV
assayEndpoint: Ki

Problem: // returns reported Ki for input "Cc1ccc2c(c1)c1c(n2CCc2ccccc2)CCN(C)C1"
Result: 0.41 to 3.6 nM

* * *

# runDescription: Brain/plasma/CSF distribution in Sprague Dawley rats
# Assay type: in vivo
# details: Sprague Dawley, rat, brain, iv, 2 mg/kg
assayEndpoint: AUC(0-t) (ng·h/mL)
Record the value in ng·h/mL, omitting the unit from your answer.

Problem: Reported AUC(0-t), molecule "Cc1ccc2c(c1)c1c(n2CCc2ccccc2)CCN(C)C1" : ____
Result: 8000

* * *

# runDescription: Pharmacokinetics in Rhesus monkeys
# Format: in vivo
# details: rhesus monkey, in vivo, iv, 2 mg/kg, AUC0 ⟶∞, monkey 34887, IV 2 mg/kg
assayEndpoint: AUC (ng·h/mL)
Answer format: numeric, ng·h/mL implied, no suffix.

Problem: What AUC value was documented for this compound, "Cc1ccc2c(c1)c1c(n2CCc2ccccc2)CCN(C)C1" ?
Result: 388

* * *

# runDescription: Pharmacokinetics in mice, IP
# Assay type: in vivo
# details: mouse, blood, 0.2 mg/kg
assayEndpoint: Cmax (ng/mL)
Unit ng/mL implied. Number only.

Problem: What value of Cmax has been reported for the following compound? "Cc1ccc2c(c1)c1c(n2CCc2ccccc2)CCN(C)C1"
Result: 5

* * *

# runDescription: Pharmacokinetics in Rhesus monkeys
# Type: in vivo
# details: rhesus monkey, in vivo, po, 10 mg/kg, Kel, monkey 35189, PO 10 mg/kg
assayEndpoint: k el (s⁻¹)
// note: answer is a bare numeric in s⁻¹

Problem: # lookup: k el of "Cc1ccc2c(c1)c1c(n2CCc2ccccc2)CCN(C)C1"
Result: 4.5e-05
